Each recorded value in this set is attributed to paper PMC7826789.

- Test system: EPHA8
- conditionInfo: Compound Concentration (nM):1000;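 note: KINOMEscan scanMAX binding as percent activity remaining versus control; lower means stronger binding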
recordedEndpoint: Percent Control

stdin: Can you share its Percent Control? I mean this compound: CN1CCN(C(=O)c2ccc(NC(=O)Nc3ccc(N(C)c4ccnc(Nc5ccc(CS(C)(=O)=O)cc5)n4)cc3)cc2)CC1.Cl [GW830263A]
stdout: 89%

stdin: Can you share its Percent Control? I mean this compound: CN(C)c1cc2c(Nc3ccc4c(cnn4Cc4ccccc4)c3)ncnc2cn1 [GW282974X]
stdout: 90%

stdin: Can you share its Percent Control? I mean this compound: COc1ccc(COc2ccc(Cc3cnc(N)nc3N)cc2OC)cc1 [GW632580X]
stdout: 90%

----------
- Test system: MKNK2
- conditionInfo: Compound Concentration (nM):1000
recordedEndpoint: Percent Control (%)
Give the value in % but do not write % after it.

COc1ccc2[nH]c3c4[nH]c5ccc(OC)cc5c4c4c(c3c2c1)C(=O)NC4=O [GW296115X]	54
CC(C)COC(=O)c1ccc2c(c1)/C(=C/Nc1ccc(S(N)(=O)=O)cc1)C(=O)N2 [GW416981X]	100

In the following, a different compound is considered.
stdin: Can you share its Percent Control? I mean this compound: CN1CCN(C(=O)c2ccc(NC(=O)Nc3ccc(N(C)c4ccnc(Nc5ccc(CS(C)(=O)=O)cc5)n4)cc3)cc2)CC1.Cl [GW830263A]
stdout: 4.2

----------
- Test system: ERBB2
- conditionInfo: Compound Concentration (nM):1000
recordedEndpoint: Percent Control (%)
Give the value in % but do not write % after it.

Sample answers from the record:
Cl.O=C(Nc1ccc(Oc2ccc3[nH]c(NC(=O)c4ccccc4)nc3c2)cc1)Nc1cc(C(F)(F)F)ccc1F [GW709042A]	92
Cc1cc(O)cc(C)c1/C=C/c1cncc(C(N)=O)c1 [GW435821X]	61

stdin: Can you share its Percent Control? I mean this compound: CCS(=O)(=O)c1ccc(OC)c(Nc2ncc(-c3cccc(F)c3)o2)c1 [GW621970X]
stdout: 88

stdin: Can you share its Percent Control? I mean this compound: CC1=C(C(=O)Nc2ccc3[nH]ncc3c2)C(c2ccc(Cl)c(Cl)c2)CC(=O)N1 (stereo not shown) [GSK299115A]
stdout: 92

----------
- Tested on: MEK3
- Construct: gene MAP2K3
- conditionInfo: Compound Concentration (nM):1000
Reported Percent Control values for a set of compounds
Give the value in % but do not write % after it.

CCc1ccc(Oc2nccc(-c3c(-c4ccc(F)cc4)ncn3C3CCNCC3)n2)cc1 [SB-242719]	78

stdin: Can you share its Percent Control? I mean this compound: CCS(=O)(=O)c1ccc(OC)c(Nc2ncc(-c3cccc(OC)c3)o2)c1 [GW580509X]
stdout: 78

stdin: Can you share its Percent Control? I mean this compound: Cl.O=C(O[C@H]1CN[C@H](C#Cc2cc3ncnc(Nc4ccc5c(cnn5Cc5ccccc5)c4)c3s2)C1)N1CCOCC1 [GSK200398A]
stdout: 78

----------
Reported Percent Control values for a set of compounds
- System: RIPK5
- Construct: gene DSTYK
- conditionInfo: Compound Concentration (nM):1000
Give the value in % but do not write % after it.

Sample answers from the record:
NS(=O)(=O)c1ccc(N/N=C2\C(=O)Nc3ccc(C(=O)NCc4ccncc4)cc32)cc1 [GW300657X]	47
NS(=O)(=O)c1ccc(N/N=C2\C(=O)Nc3ccc(C(=O)NCCc4c[nH]cn4)cc32)cc1 [GW300660X]	59
C[C@@H](Oc1cc(-n2cnc3ccc(OC4CCN(C)CC4)cc32)sc1C(N)=O)c1ccccc1Cl [GSK579289A]	93
COc1cc2ncn(-c3cc(O[C@H](C)c4ccccc4Cl)c(C(N)=O)s3)c2cc1OC [GSK237701A]	84

In the following, a different compound is considered.
stdin: Can you share its Percent Control? I mean this compound: Cl.O=C(O[C@H]1CN[C@H](C#Cc2cc3ncnc(Nc4ccc5c(cnn5Cc5ccccc5)c4)c3s2)C1)N1CCOCC1 [GSK200398A]
stdout: 100

----------
- System: MET
- conditionInfo: Compound Concentration (nM):1000
Reported Percent Control values for a set of compounds
Give the value in % but do not write % after it.

Sample answers from the record:
NS(=O)(=O)c1ccc(N/N=C2\C(=O)Nc3ccc(C(=O)NCc4ccncc4)cc32)cc1 [GW300657X]	100
COc1cccc(-c2c[nH]c3c(N/N=C/c4ccncc4)ncnc23)c1 [GW814408X]	64
CC1=C(C(=O)Nc2ccc3[nH]ncc3c2)C(c2ccc3ccccc3c2)CC(=O)N1 (stereo not shown) [GSK270822A]	47

In the following, a different compound is considered.
stdin: Please provide the recorded Percent Control for NS(=O)(=O)c1ccc(Nc2ncc(-c3ccccc3)o2)cc1 [GW572399X] , tested on MET.
stdout: 100

----------
- Test system: TAOK2
- conditionInfo: Compound Concentration (nM):1000
Reported Percent Control values for a set of compounds
Give the value in % but do not write % after it.

stdin: Can you share its Percent Control? I mean this compound: O=C(Nc1n[nH]c2nc(-c3ccc(O)cc3)c(Br)cc12)C1CC1
stdout: 2.6

stdin: Can you share its Percent Control? I mean this compound: COc1cccc(-n2ncc3c(N/N=C/c4ccncc4)ncnc32)c1 [GW784752X]
stdout: 97

stdin: Can you share its Percent Control? I mean this compound: COc1cc2ncn(-c3cc(O[C@H](C)c4ccccc4Cl)c(C(N)=O)s3)c2cc1OC [GSK237701A]
stdout: 79

stdin: Can you share its Percent Control? I mean this compound: CC1=C(C(=O)Nc2ccc3[nH]ncc3c2)C(c2ccc(Cl)c(Cl)c2)CC(=O)N1 (centres unmarked) [GSK299115A]
stdout: 77

stdin: Can you share its Percent Control? I mean this compound: NS(=O)(=O)c1ccc(N/N=C2\C(=O)Nc3ccc(C(=O)NCCc4c[nH]cn4)cc32)cc1 [GW300660X]
stdout: 93

stdin: Can you share its Percent Control? I mean this compound: COc1cc2ncnc(Nc3ccc4c(cnn4Cc4ccccc4)c3)c2cc1OC.Cl [GW282449A]
stdout: 100

stdin: Can you share its Percent Control? I mean this compound: NS(=O)(=O)c1ccc(N/N=C2\C(=O)Nc3ccc(-c4cnco4)cc32)cc1
stdout: 95

stdin: Can you share its Percent Control? I mean this compound: COc1ccccc1-c1cc(/C=C2\C(=O)Nc3ncc(Br)cc32)cc(Br)c1O [GW442130X]
stdout: 100

stdin: Can you share its Percent Control? I mean this compound: O=C1Nc2ccc(C(=O)c3ccco3)cc2C1=Cc1cc(Cl)c(O)c(Cl)c1 [GW406108X]
stdout: 100

stdin: Can you share its Percent Control? I mean this compound: CCn1c(-c2nonc2N)nc2c(C#CC(C)(C)O)nc(OCCNC)cc21.Cl
stdout: 92

stdin: Can you share its Percent Control? I mean this compound: CN(C)CCNC(=O)Nc1ccc(N(C)c2ccnc(Nc3ccc(CS(C)(=O)=O)cc3)n2)cc1.Cl [GW830900A]
stdout: 86

----------
Reported Percent Control values for a set of molecules
- System: EGFR(E746-A750del)
- conditionInfo: Compound Concentration (nM):1000
Give the value in % but do not write % after it.

stdin: Can you share its Percent Control? I mean this molecule: CCS(=O)(=O)c1ccc(OC)c(Nc2ncc(-c3cccc(F)c3)o2)c1 [GW621970X]
stdout: 73

stdin: Can you share its Percent Control? I mean this molecule: CCS(=O)(=O)c1ccc(OC)c(Nc2ncc(-c3cccc(OC)c3)o2)c1 [GW580509X]
stdout: 81

stdin: Can you share its Percent Control? I mean this molecule: COC(=O)Nc1nc2ccc(Oc3ccc(NC(=O)Nc4cc(C(F)(F)F)ccc4F)cc3)cc2s1.Cl [GW693917A]
stdout: 88

stdin: Can you share its Percent Control? I mean this molecule: Cl.c1ccc(Cc2nc3ccc(Nc4ncnc5ccccc45)cc3[nH]2)cc1 [GR269666A]
stdout: 70

stdin: Can you share its Percent Control? I mean this molecule: Cl.O=C(Nc1ccc(Oc2ccc3[nH]c(NC(=O)c4ccco4)nc3c2)cc1)Nc1cc(C(F)(F)F)ccc1F [GW683134A]
stdout: 92

----------
- Test system: ANKK1
- conditionInfo: Compound Concentration (nM):1000
Reported Percent Control values for a set of compounds
Give the value in % but do not write % after it.

stdin: Can you share its Percent Control? I mean this compound: CCS(=O)(=O)c1ccc(OC)c(Nc2ncc(-c3cccc(F)c3)o2)c1 [GW621970X]
stdout: 100

stdin: Can you share its Percent Control? I mean this compound: Cc1cc(O)cc(C)c1/C=C/c1cncc(C(N)=O)c1 [GW435821X]
stdout: 85

----------
- Tested on: ICK
- conditionInfo: Compound Concentration (nM):1000
recordedEndpoint: Percent Control (%)
Give the value in % but do not write % after it.

stdin: Can you share its Percent Control? I mean this compound: Cl.c1ccc(Cc2nc3ccc(Nc4ncnc5ccccc45)cc3[nH]2)cc1 [GR269666A]
stdout: 100

stdin: Can you share its Percent Control? I mean this compound: C[C@@H](Oc1cc(-n2cnc3ccc(OC4CCN(C)CC4)cc32)sc1C(N)=O)c1ccccc1Cl [GSK579289A]
stdout: 96

stdin: Can you share its Percent Control? I mean this compound: CC1=C(C(=O)Nc2ccc3[nH]ncc3c2)C(c2ccc(Cl)c(Cl)c2)CC(=O)N1 (stereo not shown) [GSK299115A]
stdout: 83

stdin: Can you share its Percent Control? I mean this compound: NS(=O)(=O)c1ccc(N/N=C2\C(=O)Nc3ccc(C(=O)NCc4ccncc4)cc32)cc1 [GW300657X]
stdout: 15
